meta.source: ChEMBL document CHEMBL1201862

- Test system: NCI-H522
- Protocol Text: NCI tumour cell line growth inhibition, 48 h
The source made the active and inactive calls. No stated cut-off is given here; in the data, active = GI50 up to about 1.1 µM and inactive = higher.
In this exercise, the only acceptable responses are 1 = active, -1 = inactive

CC(=O)O[C@H]1C(=O)[C@@]2(C)[C@H]([C@H](OC(=O)c3ccco3)[C@]3(O)C[C@H](OC(=O)[C@H](O)[C@@H](NC(=O)c4ccccc4)c4ccccc4)C(C)=C1C3(C)C)[C@]1(OC(C)=O)CO[C@@H]1C[C@@H]2O: 1

Exercise: Query: recorded result category for COc1ccc(C2CC(c3sc(Nc4ccc(C)cc4)nc3C)=NN2)cc1 (configuration not stated) in this test
Key: -1

Exercise: Can you handle `Cc1c(O)ccc2c(O)c(NC(=O)c3ccc4c(c3)CCC(C)(C)O4)c(=O)oc12` next?
Key: -1

Exercise: Can you handle CON(C)C(=O)C(Cc1ccccc1)NC(=O)OCc1ccccc1 (configuration not stated) next?
Key: -1

Exercise: Can you handle `CC(=O)Nc1ccc(/C=C/C(=O)c2sc(-c3nc(C)c(C(=O)/C=C/c4ccc(NC(C)=O)cc4)s3)nc2C)cc1` next?
Key: -1

Exercise: Can you handle NC(=O)c1csc(C2O[C@@H](COP(=O)(O)OP(=O)(O)OC[C@H]3OC(n4cnc5c(N)ncnc54)[C@H](O)[C@@H]3O)[C@H](O)[C@@H]2O)n1 (some centres not stated) next?
Key: -1

Exercise: Can you handle BrCC(Br)(c1ccccc1)c1ccccc1-c1cc(-c2ccccc2)cc(-c2ccccc2)n1 (configuration not stated) next?
Key: -1

* * *

- Test system: A498
- Protocol Text: NCI tumour cell line growth inhibition, 48 h
Activity calls are given as the source filed them. Rule as the data show it: active = GI50 up to about 1.1 µM and inactive = higher.
In this exercise, the only acceptable responses are active, inactive

O=C(Nc1ccc(Cl)cc1)/C(Cc1cccc[n+]1[O-])=N\Nc1ccc([N+](=O)[O-])cc1[N+](=O)[O-]: inactive
COc1cccc2c1/c(=C/c1ccc(N(C)C)cc1)c1cc(-c3ccccc3)[n+](C)n12: active
COc1ccccc1-n1c(=O)n(C)c(=O)n1C(C)(C)C: inactive
Cc1nc2c(=O)n(C)c(=O)n(C)c2o1: inactive
O=CNNC(=O)Nc1ccc(Cl)cc1: inactive

Exercise: Query: recorded result category for c1cc(C2N3CCCN2CC3)ccn1 (stereo unspecified) in this test
Key: inactive

* * *

- System: MOLT-4
- Protocol Text: NCI tumour cell line growth inhibition, 48 h
Calls of active or inactive are those of the source. Rule as the data show it: active = GI50 up to about 1.1 µM and inactive = higher.
In this exercise, the only acceptable responses are yes (1) for active, no (0) for inactive

Example entries begin here.
COc1cc2c(c(OC)c1OC)-c1ccc(SC)c(=O)cc1C(NC=O)CC2 (stereo unspecified): yes (1)
CCOc1ccc(NCC2CC/C(=C\C=C\c3ccccc3)C2=O)cc1 (stereo unspecified): no (0)
CC[C@@H]1C[C@@H]2CN3CCc4c([nH]c5ccc(OC)cc45)C(COC(=O)c4ccc(OC)c(OC)c4)(C2)C13: no (0)
N=C(N)N/N=C\c1ccc(C2CCNCC2)cc1: no (0)
O=C1SC(c2ccc(Cl)cc2)(c2ccc(Cl)cc2)c2ccccc21: no (0)

Exercise: Query: recorded result category for `Cc1ccccc1NC(=O)C(=O)CC(=O)c1sc(Nc2ccccc2[N+](=O)[O-])nc1C` in this test
Key: no (0)

Exercise: Can you handle COC1CC(C)([N+](=O)[O-])C(O)C(C)O1 (stereo unspecified) next?
Key: no (0)

Exercise: Can you handle Cc1cc2nnn(C3CCCCO3)c2cc1C (stereo unspecified) next?
Key: no (0)

Exercise: Can you handle Oc1ccc(/C=N/CC2CCCN3CCCCC23)cc1 (stereo unspecified) next?
Key: no (0)

Exercise: Can you handle `CC(=O)OCCOCn1c2c(c(=O)[nH]c1=O)CCC2` next?
Key: no (0)

Exercise: Can you handle `c1ccc(Nc2nnc(CSc3nc(-c4ccccc4)c(-c4ccccc4)[nH]3)s2)cc1` next?
Key: no (0)
